test system: SN12C; experiment: Cytotoxicity against human SN12C cells assessed as cell growth at 10 uM; type: functional; settings: read-out: Activity
Below is a list of entries, each paired with its recorded growth at 10 µM value.
Entry format: amount then unit.

As a guide, the following entries are already answered.
smilesRepr	studySystem	measuredResult
COc1cc(C)cc(-c2c(-c3ccnc(-c4cccc(NC(C)=O)c4)c3)cnn2CC#N)c1	SN12C	83%
Cc1cc(O)cc(-c2nn(CC#N)cc2-c2ccnc(-c3ccccc3)c2)c1	SN12C	77.6%
COc1cc(C)cc(-c2c(-c3ccnc(-c4ccc(C(C)=O)cc4)c3)cnn2CC#N)c1	SN12C	66%
Cc1cc(O)cc(-c2nn(CC#N)cc2-c2ccnc(-c3ccc(N(C)C)cc3)c2)c1	SN12C	51.2%
Cc1cc(O)cc(-c2nn(CC#N)cc2-c2ccnc(-c3ccc(Oc4ccccc4)cc3)c2)c1	SN12C	60.2%

Q: Consider the compound shown here: `COc1cc(C)cc(-c2nn(CC#N)cc2-c2ccnc(-c3ccc(Oc4ccccc4)cc3)c2)c1` What is its recorded growth at 10 µM?
Result: 84.8%

Q: What do you have for `COc1cc(C)cc(-c2nn(CC#N)cc2-c2ccnc(-c3cccc(NC(C)=O)c3)c2)c1` ?
Result: 83%

Q: What do you have for `COc1cc(C)cc(-c2nn(CC#N)cc2-c2ccnc(-c3ccc(C#N)cc3)c2)c1` ?
Result: 85.1%

Q: What do you have for `Cc1cc(O)cc(-c2nn(CC#N)cc2-c2ccnc(-c3ccc(C#N)cc3)c2)c1` ?
Result: 73.5%

---

system: SR; experiment: Cytotoxicity against human SR cells assessed as cell growth at 10 uM; assay type: functional; conditions: read-out: Activity
Decision: growth at 10 µM compared against 30%; not below it gives criterion met, below it gives criterion not met.

Observe how each entry below is paired with its result.
smilesRepr	studySystem	label
COc1cc(C)cc(-c2nn(CC#N)cc2-c2ccnc(-c3ccc(C#N)cc3)c2)c1	SR	criterion met
COc1cc(C)cc(-c2nn(CC#N)cc2-c2ccnc(-c3cccc(NC(C)=O)c3)c2)c1	SR	criterion met
Cc1cc(O)cc(-c2nn(CC#N)cc2-c2ccnc(-c3ccc(Oc4ccccc4)cc3)c2)c1	SR	criterion met

Q: Determine whether measured growth at 10 µM meets or exceeds 30% for `COc1cc(C)cc(-c2nn(CC#N)cc2-c2ccnc(-c3ccc(N(C)C)cc3)c2)c1`
Result: criterion not met

Q: What do you have for `COc1cc(C)cc(-c2nn(CC#N)cc2-c2ccnc(-c3ccc(Oc4ccccc4)cc3)c2)c1` ?
Result: criterion met

Q: What do you have for `Cc1cc(O)cc(-c2nn(CC#N)cc2-c2ccnc(-c3ccc(N(C)C)cc3)c2)c1` ?
Result: criterion not met

Q: What do you have for `COc1cc(C)cc(-c2nn(CC#N)cc2-c2ccc(-c3cccc(C(C)=O)c3)nc2)c1` ?
Result: criterion not met

Q: What do you have for `COc1cc(C)cc(-c2c(-c3ccnc(-c4cccc(NC(C)=O)c4)c3)cnn2CC#N)c1` ?
Result: criterion met

---

Below is a list of entries, each paired with its recorded growth at 0.1 µM value.
system: SF-539; experiment: Cytotoxicity against human SF539 cells assessed as cell growth at 100 nM after 48 hrs by sulforhodamine B assay; assay type: functional; conditions: SF-539, 48 h, read-out: Activity
Lab book: enter the figure in %, no units written.

As a guide, the following entries are already answered.
smilesRepr	studySystem	growth at 0.1 µM, %
Cc1cc(O)cc(-c2nn(CC#N)cc2-c2ccnc(-c3ccc(N(C)C)cc3)c2)c1	SF-539	91
COc1cc(C)cc(-c2c(-c3ccnc(-c4ccc(C(C)=O)cc4)c3)cnn2CC#N)c1	SF-539	92
COc1cc(C)cc(-c2nn(CC#N)cc2-c2ccnc(-c3ccc(N(C)C)cc3)c2)c1	SF-539	-31

Q: Consider the molecule shown here: `COc1cc(C)cc(-c2c(-c3ccnc(-c4ccc(N(C)C)cc4)c3)cnn2CC#N)c1` What is its recorded growth at 0.1 µM?
Result: -29

Q: What do you have for `Cc1cc(O)cc(-c2nn(CC#N)cc2-c2ccnc(-c3ccc(Oc4ccccc4)cc3)c2)c1` ?
Result: 92

Q: What do you have for `COc1cc(C)cc(-c2nn(CC#N)cc2-c2ccc(-c3cccc(C(C)=O)c3)nc2)c1` ?
Result: 78

Cited source for all entries: ChEMBL document CHEMBL1165950
